- assayed_target: HIV-1 Env of isolate 92WR020 (pseudovirus) (HIV-1)
- experiment: cell-based or functional assay
Recorded IC50 (µg/mL), pseudovirus neutralization, one value per entry.
assay_metric: IC50 (µg/mL), pseudovirus neutralization

>>> quantitative_result("PGT-125 (5123_A06) (antibody, V domains shown) VH: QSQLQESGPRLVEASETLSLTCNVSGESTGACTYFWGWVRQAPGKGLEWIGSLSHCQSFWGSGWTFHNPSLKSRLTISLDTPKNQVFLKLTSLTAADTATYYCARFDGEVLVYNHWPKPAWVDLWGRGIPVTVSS VL: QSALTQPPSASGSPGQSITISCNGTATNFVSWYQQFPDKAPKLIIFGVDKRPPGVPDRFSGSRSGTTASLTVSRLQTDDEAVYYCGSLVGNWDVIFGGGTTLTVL")
0.004
>>> quantitative_result("PGT-123 (4858_P08) (antibody, V domains shown) VH: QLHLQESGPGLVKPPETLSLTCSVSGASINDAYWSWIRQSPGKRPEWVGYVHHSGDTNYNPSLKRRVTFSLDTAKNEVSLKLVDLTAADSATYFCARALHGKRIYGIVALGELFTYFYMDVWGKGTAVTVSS VL: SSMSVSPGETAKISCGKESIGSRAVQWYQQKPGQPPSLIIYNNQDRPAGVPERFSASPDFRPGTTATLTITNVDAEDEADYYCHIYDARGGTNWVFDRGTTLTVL")
0.002
>>> quantitative_result("PGT-126 (5141_B17) (antibody, V domains shown) VH: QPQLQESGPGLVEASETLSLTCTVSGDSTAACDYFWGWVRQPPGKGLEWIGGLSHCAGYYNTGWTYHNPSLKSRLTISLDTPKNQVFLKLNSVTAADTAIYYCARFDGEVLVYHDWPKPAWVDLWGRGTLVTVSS VL: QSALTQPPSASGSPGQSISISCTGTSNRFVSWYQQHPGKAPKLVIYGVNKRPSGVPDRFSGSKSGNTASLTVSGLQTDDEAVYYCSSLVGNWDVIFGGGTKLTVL")
0.006
>>> quantitative_result("PGT-127 (5145_B14) (antibody, V domains shown) VH: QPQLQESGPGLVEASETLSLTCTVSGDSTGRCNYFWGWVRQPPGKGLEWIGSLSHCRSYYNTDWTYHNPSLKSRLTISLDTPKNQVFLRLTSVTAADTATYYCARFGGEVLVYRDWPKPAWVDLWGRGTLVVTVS VL: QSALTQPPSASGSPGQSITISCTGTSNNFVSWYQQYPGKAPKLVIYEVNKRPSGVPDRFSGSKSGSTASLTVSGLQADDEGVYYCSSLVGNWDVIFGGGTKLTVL")
0.01
